src = ChEMBL document CHEMBL3751691

System: Hepatitis C virus
Test: Antiviral activity against HCV genotype 1b infected in Huh7.5 cells assessed as inhibition of viral replication at 72 hrs by luciferase reporter-based viral replicon assay
Format: functional, organism-based, Hepacivirus hominis
Conditions: Huh7.5, 72 h
pEC50: −log10 of the molar value.
Attribute: pEC50
measurement_name: pEC50

INSERT INTO measurements (molecule, reported_measurement) VALUES
  ('Clc1ccc(Cn2c(CN3CCCC3)nc3ccccc32)cc1', 4.64),
  ('Clc1ccc(Cn2nc(OCCCN3CCCC3)c3ccccc32)cc1', 5.43),
  ('Clc1ccc(Cn2c(/C=C/C3CCN(CC4CCCCC4)C3)nc3cc(Br)ccc32)cc1 (centres undefined)', 5.74),
  ('C[C@H]1CCCN1CCCOc1nn(Cc2ccc(Cl)cc2)c2ccc(-c3ccc(N4CCOCC4)nc3)cc12', 5.48);

---

Test: Inhibition of HCV NS3/4A protease
Parameters: species or system Hepacivirus hominis
pKi: −log10 of the molar value.
measurement_name: pKi

INSERT INTO measurements (compound, measurement_name, reported_measurement) VALUES
  ('CCC[C@H](NC(=O)[C@@H]1[C@H]2CCC[C@H]2CN1C(=O)[C@@H](NC(=O)[C@@H](NC(=O)c1cnccn1)C1CCCCC1)C(C)(C)C)C(=O)C(=O)NC1CC1', 'pKi', 8.15),
  ('CC(C)(C)NC(=O)N[C@H](C(=O)N1C[C@H]2[C@@H]([C@H]1C(=O)NC(CC1CCC1)C(=O)C(N)=O)C2(C)C)C(C)(C)C (some centres not stated) [BOCEPREVIR]', 'pKi', 7.85);

---

Tested on: Hepatitis C virus
Experiment: Antiviral activity against HCV genotype 6o infected in human Huh7 cells assessed as inhibition of viral replication by luciferase reporter-based viral replicon assay
Assay type: functional, organism-based, Hepacivirus hominis
Details: subtype 6, Huh-7
pEC50: −log10 of the molar value.
measurement_name: pEC50

INSERT INTO assay_data (structure, measurement_name, reported_measurement) VALUES
  ('O=C(c1ccccc1)N1CCC2(CCCN(c3ncc(-c4ccccc4)c(-c4ccc(Cl)cc4)n3)C2)CC1', 'pEC50', 5.02);

---

Tested on: Hepatitis C virus
Experiment: Antiviral activity against HCV genotype 2a
Assay type: functional, organism-based, Hepacivirus hominis
measurement_name: EC50 (µM)

INSERT INTO results (compound, target_of_assay, reported_measurement) VALUES
  ('CC(C)CN(C)c1nc(N)c(C(=O)N=C(N)N)nc1Cl [5-(N-METHYL-N-ISOBUTYL)AMILORIDE]', 'Hepatitis C virus', 3.7);

---

Assay: Binding affinity to […] by fluorescence assay
Set-up: species or system Hepacivirus hominis
pKd: −log10 of the molar value.
measurement_name: pKd

INSERT INTO results (structure, reported_measurement) VALUES
  ('O=C(NCc1cccs1)c1cc2nc(-c3ccco3)cc(C(F)(F)Cl)n2n1', 6.18),
  ('CC(=O)c1ccc(NC(=O)c2cc3c(C)nn(-c4ccccc4)c3s2)cc1', 6.00),
  ('CCCCc1c(C)nn(-c2nnc3c4ccccc4n(CC)c3n2)c1C', 5.92),
  ('Cc1nccn1-c1nc(-c2ccc(Cl)cc2)cc(C(F)(F)F)n1', 5.68),
  ('CC(C)(C)c1ccc(C(=O)Nc2sc3c(c2C(N)=O)CCCC3)cc1', 6.52),
  ('COc1ccc(Cl)cc1Nc1nc(-c2cccnc2)cs1', 5.77),
  ('COC(=O)c1c(NC(=O)Cc2cccs2)sc(C(=O)Nc2ccc(Cl)cc2)c1C', 6.52),
  ('CC(C)c1ccc(NC(=O)c2ccccc2)cc1', 5.16);
